# System: Saccharomyces cerevisiae
# assay-notes: protein stability index of tFT-peptide fusion (C-terminal peptide) (PSI (0-1 scale)); higher = more stable (slower turnover)
# condition-label: genetic background: wild type; temperature: 30 C
Quick rule for you: protein stability index at 0.7 or higher means true (1), lower means false (0).

entry_sequence=VQQSRTQKDQHV category_label="false (0)"
entry_sequence=PPVPPPLPYLPP category_label="false (0)"
entry_sequence=TGISPWPPSERR category_label="true (1)"
entry_sequence=LFGSMGVLGIGR category_label="false (0)"
entry_sequence=FGWKTGGRGTVM category_label="true (1)"
entry_sequence=FIVPLFPVFFSS category_label="false (0)"
entry_sequence=LDYDTTNSMWLS category_label="false (0)"
entry_sequence=GGWCGGSGRGAN category_label="false (0)"
entry_sequence=LFMLHFLAVLRY category_label="false (0)"
entry_sequence=GGVGWWWVRGMG category_label="true (1)"
entry_sequence=RVLCYHFSPGVV category_label="false (0)"
entry_sequence=DLTQHRQHKPQK category_label="true (1)"
entry_sequence=LPRPPPTSSTPL category_label="true (1)"
entry_sequence=FVSVWVFLVSSF category_label="false (0)"
entry_sequence=GAPAWMLLYSAS category_label="true (1)"
entry_sequence=WGGFLVDFGFQG category_label="true (1)"
entry_sequence=FLFLFIFYFFCC category_label="false (0)"
entry_sequence=SILSRPERPLTN category_label="false (0)"
entry_sequence=ALAPSAFSSSPL category_label="false (0)"
entry_sequence=LASPPFPRPPPP category_label="false (0)"
entry_sequence=GLPPPPQPLPHA category_label="true (1)"

###

# Tested on: Saccharomyces cerevisiae
# assay-notes: protein stability index of tFT-peptide fusion (C-terminal peptide) (PSI (0-1 scale)); higher = more stable (slower turnover)
# condition-label: genetic background: wild type; temperature: 30 C
Quick rule for you: protein stability index at 0.7 or higher means 1 (yes), lower means 0 (no).

entry_sequence=CRGRSGMCNLET category_label="1 (yes)"
entry_sequence=KFARHVLIQSHV category_label="0 (no)"
entry_sequence=WVLFRLPYQFFS category_label="0 (no)"
entry_sequence=HFVDAIPEGIHA category_label="0 (no)"
entry_sequence=RWVNNKKTKGQD category_label="1 (yes)"
entry_sequence=VERKLMTIYIKI category_label="0 (no)"
entry_sequence=IKKYNEKRITKV category_label="0 (no)"
entry_sequence=DFILVRGWADLR category_label="0 (no)"
entry_sequence=LPRPLTIKQVAG category_label="0 (no)"
entry_sequence=LLVIAIKVPANS category_label="0 (no)"
entry_sequence=LLVFFLAIPSLV category_label="0 (no)"
entry_sequence=NDGLKVLKETSP category_label="0 (no)"
entry_sequence=IRVLACFLFAVS category_label="0 (no)"
entry_sequence=GLHSSNQLGALY category_label="0 (no)"
entry_sequence=KAGHEPRLTRKQ category_label="0 (no)"
entry_sequence=SRLNRRKGNGRK category_label="0 (no)"
entry_sequence=SSSVSYFLHYCI category_label="0 (no)"
entry_sequence=AIIERVEQIVTA category_label="0 (no)"
entry_sequence=VVLTGPGYCLTL category_label="1 (yes)"
entry_sequence=PPLPFARAPHCP category_label="1 (yes)"
entry_sequence=LFRPFATALFPL category_label="1 (yes)"
entry_sequence=QVNSAHKRTGSG category_label="0 (no)"
entry_sequence=SSRCLPPFPLCP category_label="1 (yes)"
entry_sequence=FGSCVIFAAHWF category_label="0 (no)"
entry_sequence=LGGLLLCLGLSG category_label="0 (no)"

###

Recorded protein stability index by entry
# System: Saccharomyces cerevisiae
# assay-notes: protein stability index of tFT-peptide fusion (C-terminal peptide) (PSI (0-1 scale)); higher = more stable (slower turnover)
# condition-label: genetic background: wild type; temperature: 30 C
measurement-name: protein stability index

entry_sequence=PPLNPHPPAPTP measurement_name="protein stability index" observed_result=0.724
entry_sequence=RDMVSPLPLPLL measurement_name="protein stability index" observed_result=0.613
entry_sequence=GSVTLTLLRPPS measurement_name="protein stability index" observed_result=0.753
entry_sequence=GAASHLERGQVP measurement_name="protein stability index" observed_result=0.634

###

Recorded protein stability index by entry
# Test system: Saccharomyces cerevisiae
# assay-notes: protein stability index of tFT-peptide fusion (C-terminal peptide) (PSI (0-1 scale)); higher = more stable (slower turnover)
# condition-label: genetic background: cdc53-1; temperature: 37 C
measurement-name: protein stability index

entry_sequence=VGGGCVVVVRWG tested_on="Saccharomyces cerevisiae" observed_result=0.615
entry_sequence=FCDFLFVFPLFS tested_on="Saccharomyces cerevisiae" observed_result=0.596
entry_sequence=VCFFSSSCFLLV tested_on="Saccharomyces cerevisiae" observed_result=0.607

###

Recorded protein stability index by entry
# System: Saccharomyces cerevisiae
# assay-notes: protein stability index of tFT-peptide fusion (C-terminal peptide) (PSI (0-1 scale)); higher = more stable (slower turnover)
# condition-label: genetic background: doa10 deletion; temperature: 30 C
measurement-name: protein stability index

entry_sequence=ETYCLPRVASGI observed_result=0.666
entry_sequence=CQVSEWIRYRFL observed_result=0.247
entry_sequence=GVSRRWFSLRCI observed_result=0.125
entry_sequence=LFSFVCLVFFLW observed_result=0.306
entry_sequence=CFVICVCLCFGR observed_result=0.206

###

# Test system: Saccharomyces cerevisiae
# assay-notes: protein stability index of tFT-peptide fusion (C-terminal peptide) (PSI (0-1 scale)); higher = more stable (slower turnover)
# condition-label: genetic background: wild type; temperature: 30 C
measurement-name: protein stability index

entry_sequence="MALLAMVMGVDM [URA2 C-terminal 12 aa]" observed_result=0.676
entry_sequence="DDDEFDEDEFED [PAH1 C-terminal 12 aa]" observed_result=0.719
entry_sequence="DEFCSQRSYTRF [MIN7 C-terminal 12 aa]" observed_result=0.701
entry_sequence="NVTGSANNGTHI [SVS1 C-terminal 12 aa]" observed_result=0.671
entry_sequence="KTVIENPLEMLL [LAT1 C-terminal 12 aa]" observed_result=0.694
entry_sequence="QNQDEPITENFE [TUB2 C-terminal 12 aa]" observed_result=0.718
entry_sequence="KQGPKNLKKTKK [TAF13 C-terminal 12 aa]" observed_result=0.679
entry_sequence="GIPNFKLKVTQI [GAB1 C-terminal 12 aa]" observed_result=0.706
entry_sequence="TKKANILDPDYL [FLC1 C-terminal 12 aa]" observed_result=0.728
entry_sequence="YSIEVVPHGLIA [GLO1 C-terminal 12 aa]" observed_result=0.595
entry_sequence="FINCSSKYNGLQ [YBR224W C-terminal 12 aa]" observed_result=0.703
entry_sequence="LYEEHQQMLDKQ [IPI3 C-terminal 12 aa]" observed_result=0.726
entry_sequence="VQNWKPKPFGVL [LAS1 C-terminal 12 aa]" observed_result=0.737
entry_sequence="SGSVYIGSVFLI [YGR121W-A C-terminal 12 aa]" observed_result=0.642

###

Recorded protein stability index by entry
# Tested on: Saccharomyces cerevisiae
# assay-notes: protein stability index of tFT-peptide fusion (C-terminal peptide) (PSI (0-1 scale)); higher = more stable (slower turnover)
# condition-label: genetic background: wild type; temperature: 30 C
measurement-name: protein stability index

entry_sequence=GGCVGVLGGWGF tested_on="Saccharomyces cerevisiae" observed_result=0.683
entry_sequence=PPPPPLGPLPAL tested_on="Saccharomyces cerevisiae" observed_result=0.688
entry_sequence=EPGGSKRSGGRL tested_on="Saccharomyces cerevisiae" observed_result=0.686
entry_sequence=LFSLPPPSPPPR tested_on="Saccharomyces cerevisiae" observed_result=0.694
entry_sequence=GGLAWSMSGCVG tested_on="Saccharomyces cerevisiae" observed_result=0.691
entry_sequence=PGIVTGCGNTFV tested_on="Saccharomyces cerevisiae" observed_result=0.708
entry_sequence=ICEYGLKRKIHF tested_on="Saccharomyces cerevisiae" observed_result=0.682

###

# Test system: Saccharomyces cerevisiae
# assay-notes: protein stability index of tFT-peptide fusion (C-terminal peptide) (PSI (0-1 scale)); higher = more stable (slower turnover)
# condition-label: genetic background: wild type; temperature: 30 C
measurement-name: protein stability index

entry_sequence=VLGGLGWVCWVV tested_on="Saccharomyces cerevisiae" measurement_name="protein stability index" observed_result=0.531
entry_sequence=VTFRCHHSRQVM tested_on="Saccharomyces cerevisiae" measurement_name="protein stability index" observed_result=0.725
entry_sequence=VRGVGGLWVGAV tested_on="Saccharomyces cerevisiae" measurement_name="protein stability index" observed_result=0.684
entry_sequence=GDDCQYLVVPVR tested_on="Saccharomyces cerevisiae" measurement_name="protein stability index" observed_result=0.701
entry_sequence=ENIENGRPKTEP tested_on="Saccharomyces cerevisiae" measurement_name="protein stability index" observed_result=0.644
entry_sequence=GELDVRKLLKYF tested_on="Saccharomyces cerevisiae" measurement_name="protein stability index" observed_result=0.342
entry_sequence=DLIRIRHACGFL tested_on="Saccharomyces cerevisiae" measurement_name="protein stability index" observed_result=0.663
entry_sequence=FVDWGLFAFGCL tested_on="Saccharomyces cerevisiae" measurement_name="protein stability index" observed_result=0.796
entry_sequence=CKHPAWFQPRVG tested_on="Saccharomyces cerevisiae" measurement_name="protein stability index" observed_result=0.618
entry_sequence=VPVRLRSGGVSP tested_on="Saccharomyces cerevisiae" measurement_name="protein stability index" observed_result=0.66
entry_sequence=GWGGGCGCGRGI tested_on="Saccharomyces cerevisiae" measurement_name="protein stability index" observed_result=0.687
entry_sequence=PPRLPLSHPPEP tested_on="Saccharomyces cerevisiae" measurement_name="protein stability index" observed_result=0.634
entry_sequence=LPFPSPSPPFPF tested_on="Saccharomyces cerevisiae" measurement_name="protein stability index" observed_result=0.63
entry_sequence=RNFWIYTHTRCR tested_on="Saccharomyces cerevisiae" measurement_name="protein stability index" observed_result=0.668
entry_sequence=HPSSLRLSSSAF tested_on="Saccharomyces cerevisiae" measurement_name="protein stability index" observed_result=0.697
entry_sequence=LMGGMIRDMVWG tested_on="Saccharomyces cerevisiae" measurement_name="protein stability index" observed_result=0.643
entry_sequence=VKVYHVPSTFSV tested_on="Saccharomyces cerevisiae" measurement_name="protein stability index" observed_result=0.681
entry_sequence=ATFSVMRGQHGQ tested_on="Saccharomyces cerevisiae" measurement_name="protein stability index" observed_result=0.686
entry_sequence=CVSRRRGGEIGG tested_on="Saccharomyces cerevisiae" measurement_name="protein stability index" observed_result=0.655
entry_sequence=NSCHFYSRFYLA tested_on="Saccharomyces cerevisiae" measurement_name="protein stability index" observed_result=0.345
entry_sequence=TNYWDRGSIQPK tested_on="Saccharomyces cerevisiae" measurement_name="protein stability index" observed_result=0.668
entry_sequence=RQRSKEPVVQAY tested_on="Saccharomyces cerevisiae" measurement_name="protein stability index" observed_result=0.654
entry_sequence=SIVRKRPRTTAT tested_on="Saccharomyces cerevisiae" measurement_name="protein stability index" observed_result=0.682
entry_sequence=GFGRGRRGLEEN tested_on="Saccharomyces cerevisiae" measurement_name="protein stability index" observed_result=0.695
entry_sequence=VRFPVFFIILFL tested_on="Saccharomyces cerevisiae" measurement_name="protein stability index" observed_result=0.239
entry_sequence=YSIIYATGMRIL tested_on="Saccharomyces cerevisiae" measurement_name="protein stability index" observed_result=0.626
entry_sequence=CAGLLSVSFWLF tested_on="Saccharomyces cerevisiae" measurement_name="protein stability index" observed_result=0.499
entry_sequence=VARLGGRIGWEG tested_on="Saccharomyces cerevisiae" measurement_name="protein stability index" observed_result=0.548
entry_sequence=FPDGLGSVPRSP tested_on="Saccharomyces cerevisiae" measurement_name="protein stability index" observed_result=0.684
entry_sequence=YINQWLNVKHGD tested_on="Saccharomyces cerevisiae" measurement_name="protein stability index" observed_result=0.635
entry_sequence=LKPGYQGQHKED tested_on="Saccharomyces cerevisiae" measurement_name="protein stability index" observed_result=0.7
entry_sequence=FFTLSTVKLLRV tested_on="Saccharomyces cerevisiae" measurement_name="protein stability index" observed_result=0.508
entry_sequence=GSGRGGWRRGER tested_on="Saccharomyces cerevisiae" measurement_name="protein stability index" observed_result=0.707
entry_sequence=ACVSGSGLCLFV tested_on="Saccharomyces cerevisiae" measurement_name="protein stability index" observed_result=0.694
entry_sequence=KRVSGSEQDIAT tested_on="Saccharomyces cerevisiae" measurement_name="protein stability index" observed_result=0.656
